target.system: Small conductance calcium-activated potassium channel (Rattus norvegicus) (UniProt P70604+P70606+P70605)
assay.comment: The ratio of compound concentrations and dequalinium that cause 50% inhibition of the after-hyperpolarization
Format: functional
readout.type: EMR
Numbers only.

Example entries begin here.
| test.smiles | EMR |
| --- | --- |
| c1cc2cc(c1)CNc1cc[n+](c3ccccc13)Cc1cccc(c1)C[n+]1ccc(c3ccccc31)NC2 | 0.22 |
| c1ccc2c(c1)c1cc[n+]2Cc2ccc3c(c2)Cc2cc(ccc2-3)C[n+]2ccc(c3ccccc32)NCc2ccc(cc2)-c2ccc(cc2)CN1 | 0.15 |
| C1=C\c2ccc(cc2)C[n+]2ccc(c3ccccc32)NCc2ccc(cc2)Cc2ccc(cc2)CNc2cc[n+](c3ccccc23)Cc2ccc/1cc2 | 1.1 |
| Nc1cc[n+](Cc2ccc(-c3cccc(-c4ccc(C[n+]5ccc(N)c6ccccc65)cc4)n3)cc2)c2ccccc12 | 0.59 |
| c1cc2cc(c1)-c1cccc(c1)C[n+]1ccc(c3ccccc31)NCCCCCCCCCCNc1cc[n+](c3ccccc13)C2 | 0.28 |

Okay, here is my list. What is EMR for each of these?
1. c1ccc2c(c1)c1cc[n+]2Cc2ccc(cc2)Cc2ccc(cc2)C[n+]2ccc(c3ccccc32)NCc2ccc(cc2)-c2ccc(cc2)CN1
2. c1ccc2c(c1)c1cc[n+]2Cc2ccc(cc2)-c2ccc(cc2)C[n+]2ccc(c3ccccc32)NCCCCCCCCCCN1

1. 0.8
2. 0.26
